- experiment.description: qHTS assay to identify small molecule agonists of the retinoic acid receptor (RAR) signaling pathway (AID 1159553)
- run.parameters: C3RL4 RARE luciferase reporter, agonist, 6 h
- Source text: National Center for Advancing Translational Sciences [NCATS] NIH Chemical Genomics Center [NCGC] U.S. Environmental Protection Agency [EPA] National Institutes of Environmental Health Sciences [NIEHS] National Toxicology Program [NTP] […]
Inconclusive results are not listed. Calls of active or inactive are those of the source. The call rests on the fitted dose curve; in most records, active means well fitted activation curve with a large enough effect in the repeat runs; inconclusive means weak or mixed curves, or effect the other way; inactive means no such curve, though single readings can be large or run the other way.
Please reply with one of these outcomes: 1 (active), -1 (inactive)

structure.string: Cc1cccc(C(=O)O)c1O
label.class: -1
//
structure.string: CCCC[P+](C)(CCCC)CCCC
label.class: -1
//
structure.string: O=c1oc2cc(O)ccc2c2oc3cc(O)ccc3c12
label.class: 1

Ask: Identify the outcome logged in this assay for the compound shown: C=CC(=O)OCCOC(=O)C=C
Result: -1

Ask: O=S(=O)(O)c1ccc(Nc2nc(Nc3ccc(/C=C/c4ccc(Nc5nc(Nc6ccc(S(=O)(=O)O)cc6)nc(N(CCO)CCO)n5)cc4S(=O)(=O)O)c(S(=O)(=O)O)c3)nc(N(CCO)CCO)n2)cc1 ?
Result: -1

Ask: Another compound to check: COC(=O)c1ccccc1C
Result: -1

###

- experiment.description: A CellTox Green Cytotoxicity Assay to monitor cytotoxicity in HEK293 cells - 40 hour (AID 1224871); further: nearly all actives have a fitted effect of over 45% in size
- run.parameters: CellTox Green fluorescence; series mostly up to 76.8 µM
Inconclusive results are not listed. Active and inactive are the calls of the source. The call rests on the fitted dose curve; in most records, active means well fitted activation curve with a large enough effect in the repeat runs; inconclusive means weak or mixed curves; inactive means flat fitted curve, though single readings scatter.
Respond only with the outcome that fits, drawn from yes (1) = active, no (0) = inactive

molecule: CCCCC/C=C\C/C=C\CCCCCCCC(=O)O
label.class: no (0)
//
molecule: CC1(C)CC(O)CC(C)(C)N1
label.class: no (0)
//
molecule: COc1ccc(-c2coc3cc(O)ccc3c2=O)cc1
label.class: no (0)
//
molecule: CCCCCCC1CCCC(=O)O1 (stereo not drawn)
label.class: no (0)
//
molecule: CCCCNS(=O)(=O)c1ccc(C)cc1
label.class: no (0)

Ask: So what was the verdict on Cc1c(C)c2c(c(C)c1OC(=O)c1cccnc1)CC[C@@](C)(CCC[C@H](C)CCC[C@H](C)CCCC(C)C)O2 in this test?
Result: no (0)

Ask: Consider next the molecule O=C(Oc1ccccc1)Oc1ccccc1 in the same way.
Result: no (0)

Ask: Next: O=C(O)c1ccc2cc(C(=O)O)ccc2c1
Result: no (0)

Ask: What about Cc1nc2n(c(=O)c1CCN1CCC(c3noc4cc(F)ccc34)CC1)CCCC2 ?
Result: no (0)

Ask: Note, next up: COC(=O)c1ccccc1C
Result: no (0)

Ask: Also O=C1C(c2[nH]c3ccc(S(=O)(=O)O)cc3c2O)=Nc2ccc(S(=O)(=O)O)cc21 ?
Result: no (0)

Ask: Now consider CC1=CCC(=C(C)C)CC1 .
Result: no (0)

Ask: Field entry: CCc1oc2ccccc2c1C(=O)c1cc(I)c(O)c(I)c1
Result: no (0)

Ask: Follow-up entry: CCCCCc1ccc(Cl)cc1
Result: no (0)

###

- experiment.description: A CellTox Green Cytotoxicity Assay to monitor cytotoxicity in HepG2 cells - 8 hour (AID 1224890); further: nearly all actives have a fitted effect of over 45% in size
- run.parameters: CellTox Green fluorescence; series mostly up to 76.8 µM
Records with an inconclusive call do not appear. The source made the active and inactive calls. Calls come from the whole dose curve; as a rule, active = well fitted activation curve with a large enough effect in the repeat runs; inconclusive = weak or mixed curves; inactive = flat fitted curve, though single readings scatter.
Select the correct class. Options are t = active, f = inactive and nothing else.

Before answering, review these 3 worked examples.
compound: C#C[C@]1(OC(C)=O)CC[C@H]2[C@@H]3CCC4=C[C@@H](OC(C)=O)CC[C@@H]4[C@H]3CC[C@@]21C
label.class: f

compound: CC1(C)[C@@H](O)CC[C@]2(C)[C@H]3C(=O)C=C4[C@@H]5C[C@@](C)(C(=O)O)CC[C@]5(C)CC[C@@]4(C)[C@]3(C)CC[C@@H]12
label.class: f

compound: Cc1cc(-c2ccc(N=Nc3cc(S(=O)(=O)O)c4ccccc4c3N)c(C)c2)ccc1N=Nc1cc(S(=O)(=O)O)c2ccccc2c1N
label.class: f

# ---- query compound ----
Ask: Hi team, can someone confirm the assay call for CCCCCCC1CCCC(=O)O1 (stereo not drawn) ?
Result: f
